Reference source: the supplement of paper PMC10307832

- Test system: BEN
- Assay Remarks: relative viability (nuclei count vs DMSO), 5 days (fraction); higher = more cells survive
- Protocol Conditions: first compound 2.53 µM
Labelling field: enter Yes if recorded relative viability is less than 0.7. Enter No if it equals or exceeds that cut-off.

**Q:** I'd appreciate it if you could check whether CCCCCCCCCCCC1=C(O)C(=O)C=C(O)C1=O [Embelin] + CC(C)C[C@H](NC(=O)[C@H](Cc1ccccc1)NC(=O)c1cnccn1)B(O)O [Bortezomib] (partner 0.002 µM) has relative viability smaller than 0.7.
**A:** No

**Q:** Also check CCCCCCCCCCCC1=C(O)C(=O)C=C(O)C1=O [Embelin] + O=C(c1cc(Cc2n[nH]c(=O)c3ccccc23)ccc1F)N1CCN(C(=O)C2CC2)CC1 [Olaparib] (partner 8 µM)
**A:** No

**Q:** Please do the same for CCCCCCCCCCCC1=C(O)C(=O)C=C(O)C1=O [Embelin] + COc1cccc2cc(-c3nc([C@H]4CC[C@H](C(=O)O)CC4)n4ncnc(N)c34)[nH]c12 [OSI-027] (partner 0.5 µM) as well.
**A:** Yes

**Q:** Now the same for CCCCCCCCCCCC1=C(O)C(=O)C=C(O)C1=O [Embelin] + CS(=O)(=O)CCNCc1ccc(-c2ccc3ncnc(Nc4ccc(OCc5cccc(F)c5)c(Cl)c4)c3c2)o1 [Lapatinib] (partner 2 µM)
**A:** No

**Q:** Also CCCCCCCCCCCC1=C(O)C(=O)C=C(O)C1=O [Embelin] + COc1cc2c(Oc3ccc(NC(=O)C4(C(=O)Nc5ccc(F)cc5)CC4)cc3F)ccnc2cc1OCCCN1CCOCC1 [Foretinib] (partner 0.25 µM) , if possible.
**A:** Yes

----------
- Tested on: NCI-H2342
- Assay Remarks: relative viability (nuclei count vs DMSO), 5 days (fraction); higher = more cells survive
- Protocol Conditions: first compound 1.265 µM
Metric Name: relative viability
Please state the value as a number alone, without comment.

**Q:** What value of relative viability has been reported for the following molecule? Clc1ccc(Nc2nnc(Cc3ccncc3)c3ccccc23)cc1 [Vatalanib] + CC(=O)c1c(C)c2cnc(Nc3ccc(N4CCNCC4)cn3)nc2n(C2CCCC2)c1=O [Palbociclib] (partner 0.5 µM)
**A:** 0.579

**Q:** Moving on to Clc1ccc(Nc2nnc(Cc3ccncc3)c3ccccc23)cc1 [Vatalanib] + COc1cc2c(Oc3ccc(NC(=O)C4(C(=O)Nc5ccc(F)cc5)CC4)cc3F)ccnc2cc1OCCCN1CCOCC1 [Foretinib] (partner 0.25 µM)
**A:** 1.16

**Q:** Next molecule up: Clc1ccc(Nc2nnc(Cc3ccncc3)c3ccccc23)cc1 [Vatalanib] + N=C(N)NC(=N)NCCc1ccccc1 [Phenformin] (partner 250 µM)
**A:** 0.652

**Q:** Try COc1cc(N2CCC(C(N)=O)CC2)ccc1Nc1nc(N)c(Cl)c(Nc2ccccc2S(=O)(=O)C(C)C)n1 [HG-5-88-01] + Cc1cc(Nc2cc(N3CCN(C)CC3)nc(Sc3ccc(NC(=O)C4CC4)cc3)n2)n[nH]1 [Tozasertib] (partner 0.1 µM) next.
**A:** 0.273

**Q:** Same question, Clc1ccc(Nc2nnc(Cc3ccncc3)c3ccccc23)cc1 [Vatalanib] + Nc1ncn([C@H]2C[C@H](O)[C@@H](CO)O2)c(=O)n1 [Decitabine] (partner 2 µM) this time
**A:** 0.736
